# Test system: FYN;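 note: KINOMEscan kinase panel screen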
# applied-conditions: concentration: 1 μM, replicates: in singlicate; n = 1
observable: %Inh (%)
Response body: numeric value in %, unit text excluded.

Reference set (3 entries):
CN1CCN(CCCNc2nccc(-c3c(-c4ccc(F)cc4)nn4cc(C(F)(F)F)ccc34)n2)CC1    0
Cc1cccc(NC(=O)Nc2ccc(Oc3ncnc4ccn(C)c34)cc2)c1    0
COc1cc(Nc2ncc3c(C)nc(-c4cc5ccccc5[nH]4)n3n2)cc(OC)c1OC    30

Problem: Reported %Inh for CCc1ccc(-c2ccc3c(c2)-c2c(cnn2C)S(=O)(=O)N3C)cc1 : what is it?
Result: 3

Problem: How about CCn1c(-c2nonc2N)nc2c(C#CC(C)(C)O)nc(OC[C@H](N)c3ccccc3)cc21 ?
Result: 0

Problem: Please give the result for O=c1[nH]cc(-c2ccc(N3CCOCC3)cc2)c2sc(-c3cn[nH]c3)cc12 too.
Result: 31

Problem: Follow-up entry: COc1cc(Nc2nccc(-c3c(-c4cccc(NC(=O)c5c(F)cccc5F)c4)nn4ncccc34)n2)cc(OC)c1OC
Result: 97.5

Problem: Now this one: NCCCC(NC(=O)c1cc(Br)c(-c2ccnc3[nH]ccc23)s1)c1ccccc1.O=C(O)C(F)(F)F.O=C(O)C(F)(F)F (centres unmarked)
Result: 2
